Tested on: K-562 leukemia
assay method text: NCI tumour cell line growth inhibition, 48 h
Assignment: determine reported TGI for the given compounds.

Which TGI reading was recorded for the compound C/C(=N/O)c1ccc(Nc2cc(-n3ccnc3)c3ccccc3n2)cc1 ? > 100 µM

Can you handle Cc1cc2nc(-c3c(F)cccc3Cl)n(Cc3c(F)cccc3Cl)c2cc1C next? > 100 µM

Another compound: [Cl-].[Fe+2].c1ccc(-c2ccnc3c2ccc2c(-c4ccccc4)ccnc23)cc1.c1ccc(-c2ccnc3c2ccc2c(-c4ccccc4)ccnc23)cc1.c1ccc(-c2ccnc3c2ccc2c(-c4ccccc4)ccnc23)cc1 0.139 µM

One more compound: C[C@H](CCC(=O)NCC(=O)O)[C@H]1CC[C@H]2[C@@H]3[C@H](O)C[C@@H]4C[C@H](O)CC[C@]4(C)[C@H]3CC[C@]12C > 100 µM

Let us now turn to O=P(O)(O)CN1CCNCCN(CP(=O)(O)O)CC1 > 76.6 µM

Now the same for COc1cc(Cn2c(-c3ccccc3)cc3c2-c2oncc2CC3)cc(OC)c1 > 100 µM

Ok, now CC(=O)OC(=O)O/C=C\CCl > 100 µM

What about C(#Cc1ccccc1)SC1=C(c2ccccc2)S/C(=C(\SC#Cc2ccccc2)c2ccccc2)S1 ? > 100 µM

Now give it for Cc1c(Cl)c(C)c(Cc2c(C)c(Cl)c(C)c(Cl)c2O)c(O)c1Cl too. 14.1 µM
